# target.system: human Y4 receptor (human, UniProt P50391 1-375)
# Sequence (P50391 whole entry): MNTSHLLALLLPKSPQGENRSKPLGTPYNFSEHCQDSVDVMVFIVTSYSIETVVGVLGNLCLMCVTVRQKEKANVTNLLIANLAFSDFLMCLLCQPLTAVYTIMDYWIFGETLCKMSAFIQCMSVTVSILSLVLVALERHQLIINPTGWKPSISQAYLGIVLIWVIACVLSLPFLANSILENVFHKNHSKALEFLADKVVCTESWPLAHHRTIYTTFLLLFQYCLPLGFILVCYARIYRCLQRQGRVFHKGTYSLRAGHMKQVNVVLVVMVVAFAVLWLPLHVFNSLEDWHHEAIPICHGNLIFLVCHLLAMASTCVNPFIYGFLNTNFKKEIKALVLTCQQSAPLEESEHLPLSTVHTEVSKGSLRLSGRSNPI
# method.notes: 125I-PP displacement
No end group written: not given here.
endpoint.label: pIC50
FYI, pIC50 means -log10 of a concentration in mol per litre.

Some binders with recorded pIC50:
Data request, read-out pIC50, for GAPLEPHYPGDNATPEEMAKYATELRRYINKLTRPRY [4059932] 10.07

Field entry: GAPLEPEYPGDNATPEQKARYAAALRRYINHLTRPRY [4060130] 10.14

Next up: GAPLEPEAPGDNATPEQMAKYAAALRRYINKLTRPRY [4059977] 10.02

Can you check AAPLEPTYPGDNATPEQLARYYSELRRYINKLTRPRY [4060212] next? 10.17

Next entry: AAPLEPEYPGDNATPEQMAKYAASLRRYINKLTRPRY [4060146] 9.97

Now give it for GAPLEPTYPGDNATPEQLARYYSELRRYINKLTRPRY [4060211] too. 10.12

Then what about the binder PAPLEPTYPGDNATPEELARYAAELRRYINKLTRPRY [4060141] ? 9.82

Field entry: PAPLEPHFPGDNATPEEMAKYAAELRRYINKLTRPRY [4059940] 9.94

Next:
Which pIC50 value belongs to DAPLEPEYPGDDATPEEMAKYAAELRRYINKLTRPRY [4059971] ? 9.64

Next binder: PAPLEPHYPGDNATPEEMAKYAAELRRYINKITRPRY [4059943] 10.11

Then what about the binder GAPLEPTYPGDNATPEQLAKYYSELRRYINHLTRPRY [4060272] ? 10.02

Proceed to GAPLEPHFPGDNATPEEMAKYAAELRRYINKLTRPRY (ends and bridges not checked) [compound of SEQ ID NO:1092] 10.05

Also check GAPLEPEYPGDNATPEQKAKYAAALRRYINHLTRPRY [4060274] 9.89

Try this binder too: PAPLEPTYPGDNATPEQKAKYAAELRRYINKLTRPRY [4060203] 10.17

Please do the same for PAPLEPRYPGDNATPEEMAKYAAELRRYINKLTRPRY [4060143] as well. 10.02

// next record YAPLKPEYPGDNATPEQLAKYAAELRRYINKLTRPRY [4059856] 10.10

Lookup GAPLEPHYPGDNATPEEMAKYASELRRYINKLTRPRY [4059935] 10.09

And for GAPLEPTYPGDDATPEQLAKYAAELRRYINKLTRPRY [4060210] ? 9.97

Each recorded value in this set is attributed to patent US20100279930A1.
